- TESTED TARGET: D(2) dopamine receptor (Homo sapiens, UniProt P14416)
- Sequence (P14416 whole entry): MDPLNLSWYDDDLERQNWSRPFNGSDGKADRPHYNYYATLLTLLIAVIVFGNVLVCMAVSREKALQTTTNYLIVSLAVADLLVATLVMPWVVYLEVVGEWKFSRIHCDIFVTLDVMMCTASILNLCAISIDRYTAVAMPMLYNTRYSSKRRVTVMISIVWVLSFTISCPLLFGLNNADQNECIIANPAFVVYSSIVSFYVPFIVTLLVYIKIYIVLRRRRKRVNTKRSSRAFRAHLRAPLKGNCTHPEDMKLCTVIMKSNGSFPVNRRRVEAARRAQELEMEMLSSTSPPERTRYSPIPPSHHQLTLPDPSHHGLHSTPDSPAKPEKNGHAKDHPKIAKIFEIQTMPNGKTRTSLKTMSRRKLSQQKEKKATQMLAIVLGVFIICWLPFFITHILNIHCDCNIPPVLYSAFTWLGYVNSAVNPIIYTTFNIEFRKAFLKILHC
- ASSAY OVERVIEW: Ray2010 Assay 74
pKi: −log10 of the molar value.
Would you mind telling me the reported pKi of each entry?

Worked examples, 5 compounds total:
>>> df
                                   compound                             tested_target  measurement_label  result
0  COc1cc(OC)c(OC)cc1CC(C)N (stereo unspecified)  D(2) dopamine receptor (Homo sapiens, UniProt P14416)                pKi  < 5.00
1           COc1ccc2[nH]cc(CCN(C)C(C)C)c2c1  D(2) dopamine receptor (Homo sapiens, UniProt P14416)                pKi  < 5.00
2  CCSc1cc(OC)c(CC(C)N)cc1OC (stereo unspecified)  D(2) dopamine receptor (Homo sapiens, UniProt P14416)                pKi  < 5.00
3                    CCSc1cc(OC)c(CCN)cc1OC  D(2) dopamine receptor (Homo sapiens, UniProt P14416)                pKi    5.55
4  CCc1cc(OC)c(CC(C)N)cc1OC (stereo unspecified)  D(2) dopamine receptor (Homo sapiens, UniProt P14416)                pKi  < 5.00

Could you now look at the following compound, please?
Asked: Note pKi for the compound shown: C[C@@H]1C[C@H](C)N1C(=O)C1C=C2c3cccc4[nH]cc(c34)C[C@H]2N(C)C1 (stereo partly drawn) [cis-2a]
Given back: 7.31

---

Observed Ki, system Nischarin (Homo sapiens, UniProt Q9Y2I1).

                                   compound   result
0  COc1cc(CC(C)N)c(OC)cc1C (centres undefined)  > 10 µM
1  CC(N)Cc1ccc2c(c1)OCO2 (centres undefined)  > 10 µM
2                     CCc1cc(OC)c(CCN)cc1OC  > 10 µM

Could you now look at the following compound, please?
Asked: Note Ki for the compound shown: CCc1cc(OC)c(CC(C)N)cc1OC (centres undefined)
Given back: > 10 µM

All figures here come from BindingDB's records for PubMed 20126400.
